Source listed as patent US20240101668A1.

- Tgt: T1, huFLT3-T227-His (human, UniProt P36888 27-543)
- T1 construct: extracellular domain; also called FLT3 WT
- Experimental Protocol: BLI;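 note: octet BLI with scFvs from periplasmic extracts captured by anti-V5 antibody on streptavidin sensors, FLT3 protein associating 2 min then dissociating 5 min, 1:1 Langmuir fit for off-rate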
Measured Parameter: binding result

Binder	Measured Parameter	Experimental Result
Polypeptide No. 227 (scFv, V domains shown, scFv) VH: QVQLVQSGAEVKKPGSSVKVSCKASGYTLNELFMHWVRQAPGQGLEWVGGIIPMSGTTFYAQTFQGRVTITADESTSTAYMELSSLRSEDTAVYYCAKGVRQYSYGRYYYGMDVWGQGTLVTVSS VL: DIQMTQSPSSLSASVGDRVTITCRASQSVSSYLNWYQQKPGKAPKLLIYGASNLQSGVPSRFSGSGSGTDFTLTISSLQPEDFATYYCQQSYTTPWTFGQGTRLEIKR	binding result	binds
Polypeptide No. 230 (scFv, V domains shown, scFv) VH: QVQLVQSGAEVKKPGSSVKVSCKASGGTFSSNAINWVRQAPGQGLEWMGGIIPLFGTTNYAQKFQGRVTITADESTSTAYMELSSLRSEDTAVYYCARVLSGWYGTYYFDYWGQGTLVTVSS VL: EIVMTQSPATLSVSPGERATLSCRASQSVSADYIAWYQQKPGQAPRLLIYDVSTRASGIPARFSGSGSGTEFTLTISSLQSEDFAVYYCQHYGSSQVTFGQGTKVEIKR	binding result	binds
